Every entry's value here was drawn from patent US20170334899A1.

Consider compounds characterized by their pIC50 with catalytic domain of human Bub1 (amino acids 704-1085) (Homo sapiens).
Sequence (O43683 704-1085): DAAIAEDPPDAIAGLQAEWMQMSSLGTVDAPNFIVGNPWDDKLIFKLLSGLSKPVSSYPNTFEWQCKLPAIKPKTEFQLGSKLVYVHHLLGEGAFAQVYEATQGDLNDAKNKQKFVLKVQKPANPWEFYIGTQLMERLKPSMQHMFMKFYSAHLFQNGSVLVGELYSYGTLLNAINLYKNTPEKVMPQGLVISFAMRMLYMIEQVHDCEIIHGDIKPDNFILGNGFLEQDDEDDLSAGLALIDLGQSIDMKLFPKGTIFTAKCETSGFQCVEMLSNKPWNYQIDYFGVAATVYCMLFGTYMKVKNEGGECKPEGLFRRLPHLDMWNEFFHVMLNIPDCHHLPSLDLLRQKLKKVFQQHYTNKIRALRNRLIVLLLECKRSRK
pIC50: −log10 of the molar value.

>>> observed_value("Cc1nsc(Nc2cncc(C(F)(F)F)n2)c1C(=O)Nc1ccc(OC2CCN(C)CC2)nc1 [Example 219]")
"< 4.70"
>>> observed_value("Cc1nsc(Nc2cncc(C(F)(F)F)n2)c1C(=O)Nc1ccc(C(=O)N2CCN(CC(F)F)CC2)cc1 [Example 273]")
"< 4.70"
>>> observed_value("Cc1nsc(Nc2cnc3ccccc3n2)c1C(=O)Nc1cccc(NC(=O)OC(C)(C)C)c1 [Example 178]")
"< 4.70"
>>> observed_value("Cc1nsc(Nc2cnc3ccccc3n2)c1C(=O)Nc1cccc(C(=O)NC2CC2)c1 [Example 249]")
5.92

Request - read-out pIC50 | tested on catalytic domain of human Bub1 (amino acids 704-1085) (Homo sapiens) | compound Cc1nsc(Nc2cnc(C(F)(F)F)cn2)c1C(=O)Nc1ccc(OCC2CCN(CC(F)F)C2)nc1 (stereo not shown) [Example 122]
≤ 4.70

Same lookup for Cc1nsc(Nc2cc(C#N)ccn2)c1C(=O)Nc1ccc(NC(=O)OC(C)(C)C)cc1 [Example 177] , please.
< 4.70

Same again, this time with Cc1nsc(Nc2cncc(C(F)(F)F)n2)c1C(=O)Nc1ccc(OCC2CCN(C(=O)OC(C)(C)C)CC2)nc1 [Example 226]
< 4.70

What about CCCN1CC[C@@H](Oc2ccc(NC(=O)c3c(C)nsc3Nc3cnc(C(F)(F)F)cn3)cn2)[C@H](F)C1 [Example 371] ?
< 4.70

What do you have for Cc1nsc(Nc2cnc(C(F)(F)F)cn2)c1C(=O)Nc1ccc(O[C@@H]2CCN(CCC(F)(F)F)C[C@@H]2F)nc1 [Example 139] ?
< 4.70

Consider next the compound Cc1nsc(Nc2cnc3ccccc3n2)c1C(=O)Nc1cccc(NS(=O)(=O)C2CCN(CC(F)(F)F)CC2)c1 [Example 281] in the same way.
< 4.70

Repeat for the following compound: Cc1nsc(Nc2cnc(C(F)(F)F)cn2)c1C(=O)Nc1ccc(F)c(OCC2CCCN(CC(F)F)C2)c1 (stereo not shown) [Example 335]
≤ 4.70

Follow-up item: CCN(CC)CCNC(=O)c1cccc(NC(=O)c2c(C)nsc2Nc2cc(C#N)ccn2)c1 [Example 174]
< 4.70

----------
# pIC50 per record follows
Molecular target: CDK2/CycE (Homo sapiens)
Construct: GST
Test: CDK2/CycE kinase assay (TR-FRET)
Details: avg, read-out: CDK2 avg (IC50 [mol/l])
pIC50: −log10 of the molar value.

Solved entries:
>>> observed_value("Cc1nsc(Nc2cnc3ccccc3n2)c1C(=O)Nc1ccc(NC2CC2)nc1")
"< 4.70"
>>> observed_value("Cc1nsc(Nc2cnc(C(F)(F)F)cn2)c1C(=O)Nc1ccc(F)c(OCC2CCN(CC(F)F)C2)c1 (centres unmarked)")
"≤ 4.70"
>>> observed_value("Cc1nsc(Nc2cncc(C(F)(F)F)n2)c1C(=O)Nc1ccc(OCC2CCCN(C(=O)OC(C)(C)C)C2)nc1 (centres unmarked)")
"< 4.70"
>>> observed_value("Cc1nsc(Nc2cnc3ccccc3n2)c1C(=O)Nc1ccc(S(C)(=O)=O)cc1")
"≤ 4.70"
>>> observed_value("Cc1nsc(Nc2cnc3ccccc3n2)c1C(=O)Nc1ccc(NCCC(=O)OC(C)(C)C)nc1")
"< 4.70"
>>> observed_value("CCNS(=O)(=O)c1ccc(NC(=O)c2c(C)nsc2Nc2cnc3ccccc3n2)cc1")
"≤ 4.70"

// pIC50 lookup, key: `Cc1nsc(Nc2cnc(C(F)(F)F)cn2)c1C(=O)Nc1ccc(OC2CCNCC2)c(F)c1`
< 4.70

Please do the same for `Cc1nsc(Nc2cnc(C(F)(F)F)cn2)c1C(=O)Nc1ccc(OCCCN(C)CC(F)(F)F)nc1` as well.
≤ 4.70

----------
Target: catalytic domain of human Bub1 (amino acids 704-1085) (Homo sapiens)
pIC50: −log10 of the molar value.
ASSAY_ENDPOINT: pIC50

>>> observed_value("Cc1nsc(Nc2cnc(C(F)(F)F)cn2)c1C(=O)Nc1ccc(OC2CCCN(CCC(F)(F)F)C2)nc1 (stereo not shown)")
"≤ 4.70"

Need pIC50 of Cc1nsc(Nc2cnc(C(F)(F)F)cn2)c1C(=O)Nc1ccc(OC2CCN(CCF)C2)nc1 (stereo not shown) , thanks.
< 4.70

Entry `Cc1nsc(Nc2cnc(C(F)(F)F)cn2)c1C(=O)Nc1ccc(F)c(OC[C@H]2CCCN(CC(F)(F)F)C2)c1` please
< 4.70

Record: `Cc1nsc(Nc2cnc3ccccc3n2)c1C(=O)Nc1cccc(C(=O)NC(C)(C)C)c1`
5.05

----------
Molecular target: human kinase Mps-1 (Homo sapiens, UniProt P33981)
Construct: N-terminally GST-tagged human full length recombinant Mps-1 kinase; GST (N)
Sequence (P33981 1-857): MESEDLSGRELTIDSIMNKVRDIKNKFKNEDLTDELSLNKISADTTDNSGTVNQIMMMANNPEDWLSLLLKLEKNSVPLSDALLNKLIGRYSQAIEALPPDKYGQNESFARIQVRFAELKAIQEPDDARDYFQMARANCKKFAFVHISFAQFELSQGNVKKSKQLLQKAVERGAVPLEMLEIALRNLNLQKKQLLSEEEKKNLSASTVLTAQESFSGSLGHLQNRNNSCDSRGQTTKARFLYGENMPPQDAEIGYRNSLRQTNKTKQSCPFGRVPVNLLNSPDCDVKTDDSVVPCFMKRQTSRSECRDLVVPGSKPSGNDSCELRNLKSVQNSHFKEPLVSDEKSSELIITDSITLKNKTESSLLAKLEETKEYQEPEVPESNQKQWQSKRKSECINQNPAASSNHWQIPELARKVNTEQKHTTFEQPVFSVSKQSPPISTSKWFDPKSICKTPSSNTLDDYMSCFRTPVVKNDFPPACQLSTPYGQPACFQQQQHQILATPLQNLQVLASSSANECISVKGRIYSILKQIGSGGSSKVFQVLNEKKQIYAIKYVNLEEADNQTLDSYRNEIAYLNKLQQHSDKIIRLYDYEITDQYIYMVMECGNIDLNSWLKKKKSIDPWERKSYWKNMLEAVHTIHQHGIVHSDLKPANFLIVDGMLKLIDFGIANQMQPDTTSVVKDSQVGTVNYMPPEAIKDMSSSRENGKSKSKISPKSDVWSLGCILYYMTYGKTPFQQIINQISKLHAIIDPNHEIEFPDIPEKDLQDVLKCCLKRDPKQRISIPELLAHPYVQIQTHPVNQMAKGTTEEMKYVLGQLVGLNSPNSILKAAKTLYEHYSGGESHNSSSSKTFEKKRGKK
Assay: Mps-1 kinase assay (TR-FRET)
Conditions: Mps-1 TR-FRET kinase assay; avg; read-out: Mps1 avg (IC50 [mol/l])
pIC50: −log10 of the molar value.
ASSAY_ENDPOINT: pIC50

Reference set, count: 3
>>> observed_value("Cc1nsc(Nc2cnc(C(F)(F)F)cn2)c1C(=O)Nc1ccc(OC2CCN(C)CC2)nc1")
"< 4.70"
>>> observed_value("Cc1nsc(Nc2cnc(C(F)(F)F)cn2)c1C(=O)Nc1ccc(C(=O)NC2CCN(CC(F)F)CC2)cc1")
"< 4.70"
>>> observed_value("Cc1nsc(Nc2cnc(C(F)(F)F)cn2)c1C(=O)Nc1ccc(O[C@H]2CCN(CC(F)F)C2)nc1")
"< 4.70"

# evaluate next
Item: `Cc1nsc(Nc2cnc(C(F)(F)F)cn2)c1C(=O)Nc1ccc(O[C@@H]2CCCN(CCC(F)(F)F)C2)nc1` Test system: human kinase Mps-1 (Homo sapiens, UniProt P33981) Read-out: pIC50 Value: ?
≤ 4.70

----------
IC50 overview
Biological target: CDK2/CycE (Homo sapiens, UniProt P24941)
Construct: GST
Assay: CDK2/CycE kinase assay (TR-FRET)
Conditions: avg, read-out: CDK2 avg (IC50 [mol/l])

// worked examples, IC50 included
>>> observed_value("Cc1nsc(Nc2cnc(C(F)(F)F)cn2)c1C(=O)Nc1ccc(OCCN(C)CCF)nc1 [Example 348]")
"≥ 20 µM"
>>> observed_value("Cc1nsc(Nc2cnc(C(F)(F)F)cn2)c1C(=O)Nc1ccc(O[C@@H]2CCN(CC(F)F)C[C@@H]2F)nc1 [Example 137]")
"> 20 µM"
>>> observed_value("Cc1nsc(Nc2cnc(C(F)(F)F)cn2)c1C(=O)Nc1ccc(C(=O)NC2CN(CC(F)F)C2)cc1 [Example 271]")
"> 20 µM"
>>> observed_value("Cc1nsc(Nc2cnc(C(F)(F)F)cn2)c1C(=O)Nc1ccc(F)c(O[C@H]2CCN(CC(F)F)C2)c1 [Example 417]")
"> 20 µM"
>>> observed_value("Cc1nsc(Nc2cncc(C(F)(F)F)n2)c1C(=O)Nc1ccc(OC2CCN(CCF)CC2)c(F)c1 [Example 223]")
"> 20 µM"
>>> observed_value("Cc1nsc(Nc2cnc3ccccc3n2)c1C(=O)Nc1ccc(Oc2cccnc2)nc1 [Example 231]")
"> 20 µM"

Quick check: IC50 of Cc1nsc(Nc2cnc(C(F)(F)F)cn2)c1C(=O)Nc1ccc(F)c(OC[C@@H]2CCCN(CC(F)(F)F)C2)c1 [Example 342] ?
> 20 µM

Next up: Cc1nsc(Nc2cnc(C(F)(F)F)cn2)c1C(=O)Nc1ccc(F)c(OC2CCN(CCF)CC2)c1 [Example 266]
> 20 µM

And Cc1nsc(Nc2cnc(C(F)(F)F)cn2)c1C(=O)Nc1ccc(OC[C@@H]2CCCN(CCC(F)(F)F)C2)nc1 [Example 377] ?
> 20 µM

Similarly, CC(=O)Nc1ccc(NC(=O)c2c(C)nsc2Nc2ccc(C#N)cn2)cn1 [Example 435] ?
> 20 µM

Next compound: Cc1nsc(Nc2cnc3ccccc3n2)c1C(=O)Nc1cccc(NC(=O)OC(C)(C)C)c1 [Example 178]
> 20 µM

Param item: Cc1nsc(Nc2cnc(C(F)(F)F)cn2)c1C(=O)Nc1ccc(OCCNCCF)nc1 [Example 321]
≥ 20 µM

Next record, please: Cc1nsc(Nc2cnc(C(F)(F)F)cn2)c1C(=O)Nc1ccc(F)c(OC[C@@H]2CCCN(CC(F)F)C2)c1 [Example 341]
> 20 µM
